Cited source: the supplement of paper PMC5998384

Listed here: items and their measured melting temperature.
System: HeLa Kyoto
protocol: melting temperature (median over replicates), in situ; higher = more thermally stable
assay_setup: cell cycle stage: mitosis
API: value field is a number in °C; no unit string.

residue_string	melting temperature [°C]
MAELRVLVAVKRVIDYAVKIRVKPDRTGVVTDGVKHSMNPFCEIAVEEAVRLKEKKLVKEVIAVSCGPAQCQETIRTALAMGADRGIHVEVPPAEAERLGPLQVARVLAKLAEKEKVDLVLLGKQAIDDDCNQTGQMTAGFLDWPQGTFASQVTLEGDKLKVEREIDGGLETLRLKLPAVVTADLRLNEPRYATLPNIMKAKKKKIEVIKPGDLGVDLTSKLSVISVEDPPQRTAGVKVETTEDLVAKLKEIGRI [ETFB]	54.2

// sample MDAPGALAQTAAPGPGRKELKIVIVGDGGCGKTSLLMVYSQGSFPEHYAPSVFEKYTASVTVGSKEVTLNLYDTAGQEDYDRLRPLSYQNTHLVLICYDVMNPTSYDNVLIKWFPEVTHFCRGIPMVLIGCKTDLRKDKEQLRKLRAAQLEPITYMQGLSACEQIRAALYLECSAKFRENVEDVFREAAKVALSALKKAQRQKKRRLCLLL [RHOF] , its melting temperature was 53

// sample MWGACKVKVHDSLATISITLRRYLRLGATMAKSKFEYVRDFEADDTCLAHCWVVVRLDGRNFHRFAEKHNFAKPNDSRALQLMTKCAQTVMEELEDIVIAYGQSDEYSFVFKRKTNWFKRRASKFMTHVASQFASSYVFYWRDYFEDQPLLYPPGFDGRVVVYPSNQTLKDYLSWRQADCHINNLYNTVFWALIQQSGLTPVQAQGRLQGTLAADKNEILFSEFNINYNNELPMYRKGTVLIWQKVDEVMTKEIKLPTEMEGKKMAVTRTRTKPVPLHCDIIGDAFWKEHPEILDEDS [THG1L] , its melting temperature was 53.5

// sample MTQQPLRGVTSLRFNQDQSCFCCAMETGVRIYNVEPLMEKGHLDHEQVGSMGLVEMLHRSNLLALVGGGSSPKFSEISVLIWDDAREGKDSKEKLVLEFTFTKPVLSVRMRHDKIVIVLKNRIYVYSFPDNPRKLFEFDTRDNPKGLCDLCPSLEKQLLVFPGHKCGSLQLVDLASTKPGTSSAPFTINAHQSDIACVSLNQPGTVVASASQKGTLIRLFDTQSKEKLVELRRGTDPATLYCINFSHDSSFLCASSDKGTVHIFALKDTRLNRRSALARVGKVGPMIGQYVDSQWSLASFTVPAESACICAFGRNTSKNVNSVIAICVDGTFHKYVFTPDGNCNREAFDVYLDICDDDDF [WDR45] , its melting temperature was 53.6

// sample MGEFNEKKTTCGTVCLKYLLFTYNCCFWLAGLAVMAVGIWTLALKSDYISLLASGTYLATAYILVVAGTVVMVTGVLGCCATFKERRNLLRLYFILLLIIFLLEIIAGILAYAYYQQLNTELKENLKDTMTKRYHQPGHEAVTSAVDQLQQEFHCCGSNNSQDWRDSEWIRSQEAGGRVVPDSCCKTVVALCGQRDHASNIYKVEGGCITKLETFIQEHLRVIGAVGIGIACVQVFGMIFTCCLYRSLKLEHY [CD151] , its melting temperature was 61.3

* * *

System: HeLa Kyoto
protocol: solubility in G1/S (NP-40 vs SDS abundance) (log2 ratio); higher = more soluble
assay_setup: cell cycle stage: G1/S
solubility in G1/S (log2) below 0.07 gives false (0); solubility in G1/S (log2) at or above it gives true (1).

-- ask Assess whether reported solubility in G1/S (log2) for MARPGMERWRDRLALVTGASGGIGAAVARALVQQGLKVVGCARTVGNIEELAAECKSAGYPGTLIPYRCDLSNEEDILSMFSAIRSQHSGVDICINNAGLARPDTLLSGSTSGWKDMFNVNVLALSICTREAYQSMKERNVDDGHIININSMSGHRVLPLSVTHFYSATKYAVTALTEGLRQELREAQTHIRATCISPGVVETQFAFKLHDKDPEKAAATYEQMKCLKPEDVAEAVIYVLSTPAHIQIGDIQMRPTEQVT [DHRS11] sits at 0.07 or higher.
-- reply true (1)

-- ask Assess whether reported solubility in G1/S (log2) for MAPPAGGAAAAASDLGSAAVLLAVHAAVRPLGAGPDAEAQLRRLQLSADPERPGRFRLELLGAGPGAVNLEWPLESVSYTIRGPTQHELQPPPGGPGTLSLHFLNPQEAQRWAVLVRGATVEGQNGSKSNSPPALGPEACPVSLPSPPEASTLKGPPPEADLPRSPGNLTEREELAGSLARAIAGGDEKGAAQVAAVLAQHRVALSVQLQEACFPPGPIRLQVTLEDAASAASAASSAHVALQVHPHCTVAALQEQVFSELGFPPAVQRWVIGRCLCVPERSLASYGVRQDGDPAFLYLLSAPREAPATGPSPQHPQKMDGELGRLFPPSLGLPPGPQPAASSLPSPLQPSWSCPSCTFINAPDRPGCEMCSTQRPCTWDPLAAAST [SHARPIN] sits at 0.07 or higher.
-- reply true (1)

-- ask Assess whether reported solubility in G1/S (log2) for MAQLGAVVAVASSFFCASLFSAVHKIEEGHIGVYYRGGALLTSTSGPGFHLMLPFITSYKSVQTTLQTDEVKNVPCGTSGGVMIYFDRIEVVNFLVPNAVYDIVKNYTADYDKALIFNKIHHELNQFCSVHTLQEVYIELFDQIDENLKLALQQDLTSMAPGLVIQAVRVTKPNIPEAIRRNYELMESEKTKLLIAAQKQKVVEKEAETERKKALIEAEKVAQVAEITYGQKVMEKETEKKISEIEDAAFLAREKAKADAECYTAMKIAEANKLKLTPEYLQLMKYKAIASNSKIYFGKDIPNMFMDSAGSVSKQFEGLADKLSFGLEDEPLETATKEN [ERLIN2] sits at 0.07 or higher.
-- reply false (0)

-- ask Assess whether reported solubility in G1/S (log2) for MSQATKRKHVVKEVLGEHIVPSDQQQIVRVLRTPGNNLHEVETAQGQRFLVSMPSKYRKNIWIKRGDFLIVDPIEEGEKVKAEISFVLCKDHVRSLQKEGFWPEAFSEVAEKHNNRNRQTQPELPAEPQLSGEESSSEDDSDLFVNTNRRQYHESEEESEEEEAA [EIF1AD] sits at 0.07 or higher.
-- reply true (1)
